# Test system: Karpas422 cells
# Assay comment: Tumor cell growth inhibition assay
# Format: cell-based
# Condition: read-out: Tumor Growth Inhibition in Karpas-422 (IC50); Karpas422 cells, six days, ATPlite
# Description: Tumor Cell Growth inhibition Assay Karpas422 cells were seeded into a 96-well plate at 2,000 cells/well in 150 ul medium (Alpha-MEM containing 10% FBS, […] Normocin, and […] Gentamycin, Invitrogen). […] Luminescent signal was measured using an Envision plate reader equipped with a US-Luminescence detector.
Measured endpoint: IC50 (nM)
Answers are plain numbers, in nM.

Worked examples follow.
Compound	Measured
Cn1cnc2c(c(-c3cc(Cl)c(O)c(C(N)=O)c3)cn2CC(=O)Nc2c(Cl)cnc(N3CCOCC3)c2F)c1=O [Compound I-185]	2200
Cn1cnc2c(c(-c3cc(Cl)c(O)c(C(N)=O)c3)cn2CC(=O)Nc2c(Cl)cnc(N3CCOCC3)c2F)c1=O [Compound I-191]	4720
Cn1cnc2c(c(-c3cc(Cl)c(O)c(C(N)=O)c3)cn2CC(=O)Nc2cc(N3CCOC(C(F)(F)F)C3)ncc2Cl)c1=O (stereo not shown) [Compound I-256]	274

For each of the compounds below, note its IC50.
1. CN(C1CCC(c2cc(NC(=O)Cn3cc(-c4cc(Cl)c(O)c(C(N)=O)c4)c4c(=O)n(C)cnc43)c(Cl)cn2)C1)S(C)(=O)=O (stereo not shown)
2. C[C@@H]1CN(c2cc(NC(=O)Cn3cc(-c4cc(C(N)=O)c(O)c(Cl)c4F)c4c(=O)n(C)cnc43)c(Cl)cn2)C[C@H](C)O1 [Compound I-192]
3. C[C@@H]1CN(c2cc(NC(=O)Cn3cc(-c4cc(C(N)=O)c(O)c(Cl)c4F)c4c(=O)n(C)cnc43)c(Cl)cn2)C[C@H](C)O1 [Compound I-170]

Result:
1. 617
2. 1240
3. 10000

Q: Return reported IC50. Input compound: C[C@H]1COCCN1c1cc(NC(=O)Cn2cc(-c3cc(Cl)c(O)c(C(N)=O)c3)c3c(=O)n(C)cnc32)c(Cl)cn1 [Compound I-35]
Result: 133

---

# Target of assay: BCL6 BTB domain (Homo sapiens (Human), UniProt P41182)
One threshold, 20 nM, splits the recorded Kd values: lower ones are Met, equal or higher ones are Not met.

Compound	Target of assay	Cat
CN1CC2CN(c3cc(NC(=O)Cn4cc(-c5cc(F)c(O)c(C(N)=O)c5)c5c(=O)n(C)cnc54)c(Cl)cn3)CC2C1 (stereo not shown)	BCL6 BTB domain (Homo sapiens (Human), UniProt P41182)	Met

Q: In the record for CCN1CCN(c2cc(NC(=O)Cn3cc(-c4cc(Cl)c(O)c(C(N)=O)c4)c4c(=O)n(C)cnc43)c(Cl)cn2)[C@@H](C)C1 , is Kd less than 20 nM?
Result: Met

Q: In the record for Cn1cnc2c(c(-c3cc(Cl)c(O)c(C(N)=O)c3)cn2CC(=O)Nc2cc(N3CC4CC(C3)O4)ncc2Cl)c1=O , is Kd less than 20 nM?
Result: Not met

Q: In the record for CC1N=CC(C#CCn2cnc3c(c(-c4cc(C(N)=O)c(O)c(F)c4F)cn3CC(=O)Nc3cc(N4CCN(C)C[C@@H]4C)nc(F)c3Cl)c2=O)=N1 (stereo partly shown) , is Kd less than 20 nM?
Result: Met

Q: In the record for C[C@H]1CN(C2COC2)CCN1c1cc(NC(=O)Cn2cc(-c3cc(C(N)=O)c(O)c(F)c3F)c3c(=O)n(C)cnc32)c(Cl)c(F)n1 , is Kd less than 20 nM?
Result: Met

Q: In the record for CO[C@@H]1CN(c2cc(NC(=O)Cn3cc(-c4cc(C(N)=O)c(O)c(F)c4F)c4c(=O)n(C)cnc43)c(Cl)cn2)C[C@@H]1F , is Kd less than 20 nM?
Result: Not met

Q: In the record for CC(C)[C@H]1CN(c2cc(NC(=O)Cn3cc(-c4cc(Cl)c(O)c(C(N)=O)c4)c4c(=O)n(C)cnc43)c(Cl)cn2)CCO1 , is Kd less than 20 nM?
Result: Not met

Q: In the record for COc1c(O)c(C(N)=O)cc(-c2cn(CC(=O)Nc3cc(N4CCOCC4)ncc3Cl)c3ncn(C)c(=O)c23)c1F , is Kd less than 20 nM?
Result: Not met

Q: In the record for C[C@H]1CN(CC2CCO2)CCN1c1cc(NC(=O)Cn2cc(-c3cc(C(N)=O)c(O)c(F)c3F)c3c(=O)n(C)cnc32)c(Cl)c(F)n1 (stereo partly shown) , is Kd less than 20 nM?
Result: Met

Q: In the record for Cc1nc2c(c(-c3cc(F)c(O)c(C(N)=O)c3)cn2CC(=O)Nc2cc(N3CC4CCC(C3)O4)ncc2Cl)c(=O)n1C , is Kd less than 20 nM?
Result: Met

Q: In the record for CO[C@H]1CN(c2cc(NC(=O)Cn3cc(-c4cc(C(N)=O)c(O)c(F)c4F)c4c(=O)n(C)cnc43)c(Cl)cn2)C[C@H]1F , is Kd less than 20 nM?
Result: Not met

Q: In the record for Cn1cnc2c(c(-c3cc(C(N)=O)c(O)c(F)c3F)cn2CC(=O)Nc2cc(N3CCCC3)nc(F)c2Cl)c1=O , is Kd less than 20 nM?
Result: Not met

Q: In the record for CC(C1CC1)N1CCN(c2cc(NC(=O)Cn3cc(-c4cc(C(N)=O)c(O)c(F)c4F)c4c(=O)n(C)cnc43)c(Cl)cn2)[C@@H](C)C1 (stereo partly shown) , is Kd less than 20 nM?
Result: Not met

Each recorded value in this set is attributed to patent US11518764B2.
